Reference source for all entries: ChEMBL document CHEMBL1141526

Assay: Oral bioavailability in Sprague-Dawley rat at 3.0 mg/kg
Type: ADME, organism-based
Conditions: in vivo
readoutName: bioavailability (%)

givenSmiles: CC(C)N1C(=O)[C@H](NC(=O)[C@@H](Cc2ccccc2C(F)(F)F)NC(=O)OC(C)(C)C)CN(CC2CC2)c2ccccc21
readoutName: bioavailability
dataValue: 9

(a) CC(C)N1C(=O)[C@H](NC(=O)[C@@H](Cc2ccccc2OC(F)(F)F)NC(=O)OC(C)(C)C)CN(CC2CC2)c2ccccc21
(b) CC(C)(C)OC(=O)N[C@H](Cc1ccccc1C(F)(F)F)C(=O)N[C@@H]1CN(CC2CC2)c2ccccc2N(CC(F)(F)F)C1=O
Request: Between item a and item b , which reported bioavailability is smaller? Answer = label.
Response: a
